Listing of entries alongside the reported TGI.
Tested on: OVCAR-4 ovarian
experiment_summary: NCI tumour cell line growth inhibition, 48 h

What value of TGI has been recorded for this entry: COc1cccc(N=N/C(=N\NC(=O)c2ccc(C)cc2)c2ccc(N(CCC#N)CCC#N)cc2C)c1
> 100 µM

Now consider C=CCP(=O)(CC=C)C(Cl)Cl and answer again.
> 100 µM

Now consider C=C(C)[C@H]1C2=CC(C)=C(O2)[C@@H](O[C@@H]2c3oc(cc3C)[C@H](C(=C)C)[C@H]3C=C(CC[C@H]2C(=C)C)C(=O)O3)[C@H](C(=C)C)CCC2=C[C@H]1OC2=O and answer again.
> 100 µM

Now consider COc1ccc(C(O)c2cc3c(N)c(C(=O)Nc4cccc(Cl)c4)sc3nc2C)cc1 (stereo not given) and answer again.
> 51.7 µM
